assay: Drug level in mouse MC38 cells allografted C57BL6 mouse blood at 10 mg/kg, po BID and measured after 24 hrs; assay type: ADME, organism-based; details: whole blood, read-out: Drug uptake
testReadout: concentration at 24 h

> print(dat)
                          structurenotation  result
1  C[C@]1(C(=O)N2CC[C@@]3(S(=O)(=O)c4ccc(F)cc4)c4ccc(OCc5c(F)cccc5C(F)(F)F)cc4CC[C@@H]23)CC[C@H](C(=O)O)CC1  100 nM

---

assay: Stability in human liver microsomes assessed as parent compound remaining at 0.5 uM in presence of NADPH by MS/MS analysis; type: ADME, Microsome; conditions: read-out: Stability
Note to self: remaining at 0.5 µM under 20% means Yes, ties and anything higher get No.

> print(dat)
                          structurenotation  labelvalue
1  CS(=O)(=O)N[C@H]1CC[C@H](C(=O)N2CC[C@@]3(S(=O)(=O)c4ccc(F)cc4)c4ccc(OCc5c(F)cccc5C(F)(F)F)cc4CC[C@@H]23)CC1         Yes
2  O=C(N1CC[C@@]2(S(=O)(=O)c3ccc(F)cc3)c3ccc(OCc4c(F)cccc4C(F)(F)F)cc3CC[C@@H]12)C1(O)CCS(=O)(=O)CC1         Yes
3  O=C(CN1CCS(=O)(=O)CC1)N1CC[C@@]2(S(=O)(=O)c3ccc(F)cc3)c3ccc(OCc4c(F)cccc4C(F)(F)F)cc3CC[C@@H]12         Yes
4  O=C([C@H]1CC[C@H](c2nnn[nH]2)CC1)N1CC[C@@]2(S(=O)(=O)c3ccc(F)cc3)c3ccc(OCc4c(F)cccc4C(F)(F)F)cc3CC[C@@H]12          No
5  NC(=O)[C@H]1CC[C@H](C(=O)N2CC[C@@]3(S(=O)(=O)c4ccc(F)cc4)c4ccc(OCc5c(F)cccc5C(F)(F)F)cc4CC[C@@H]23)CC1         Yes
6  C[C@]1(C(=O)N2CC[C@@]3(S(=O)(=O)c4ccc(F)cc4)c4ccc(OCc5c(F)cccc5C(F)(F)F)cc4CC[C@@H]23)CC[C@H](C(=O)O)CC1          No
